- experimental details: Therapeutic index, ratio of ED50 for toxicity in po dosed Kunming mouse assessed as catalepsy to ED50 for antipsychotic activity in Kunming mouse assessed as inhibition of apomorphine-induced climbing behavior
- Assay type: organism-based
- protocol conditions: in vivo, read-out: Ratio ED50
test readout: selectivity ratio
Number only, no unit.

# input compound: `O=C(CCCN1CCC(O)(c2ccc(Cl)cc2)CC1)c1ccc(F)cc1` ; wanted: its selectivity ratio
3.5

###

- experimental system: D(2) dopamine receptor (Rattus norvegicus)
# strict inequality: Ki < 600 nM yields Y, everything else yields N

Observe how each entry below is paired with its result.
INSERT INTO assay_data (chem_smiles, discrete_label) VALUES
  ('Cn1ccc2ccc(OCCCN3CCC(c4noc5cc(F)ccc45)CC3)cc2c1=O', 'Y'),
  ('COc1ccccc1N1CCN(CCCOc2ccc3c(c2)C(=O)N(C)CC3)CC1', 'N');

Below: the item to evaluate.
API: query returns whether the compound falls strictly under 600 nM in Ki. Query: `CN1CCc2ccc(OCCCCN3CCN(c4cccc5sccc45)CC3)cc2C1=O`
Y

###

- experimental system: 5-hydroxytryptamine receptor 1A (Rattus norvegicus)
- Sequence (P19327 whole entry): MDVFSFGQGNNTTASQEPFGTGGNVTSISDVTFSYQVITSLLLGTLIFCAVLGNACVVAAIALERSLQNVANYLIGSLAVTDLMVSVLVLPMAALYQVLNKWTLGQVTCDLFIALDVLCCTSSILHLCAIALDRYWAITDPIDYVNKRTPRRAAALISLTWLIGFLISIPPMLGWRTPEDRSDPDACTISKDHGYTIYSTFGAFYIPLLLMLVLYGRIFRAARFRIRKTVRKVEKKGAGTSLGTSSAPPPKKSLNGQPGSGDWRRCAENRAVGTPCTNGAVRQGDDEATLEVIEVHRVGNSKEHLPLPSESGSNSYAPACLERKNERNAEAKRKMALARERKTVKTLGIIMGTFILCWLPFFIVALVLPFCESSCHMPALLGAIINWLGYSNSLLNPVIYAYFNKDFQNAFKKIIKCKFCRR
- experimental details: biochemical
- Description: Displacement of [3H](+)8-OH-DPAT from rat cerebral cortex 5HT1A receptor measured after 30 mins by liquid scintillation counting method
pKi: −log10 of the molar value.
Listing: pKi of selected molecules

Observe how each entry below is paired with its result.
INSERT INTO measurements (chem_smiles, test_readout, reported) VALUES
  ('CN1CCc2ccc(OCCN3CCC(c4noc5cc(F)ccc45)CC3)cc2C1=O', 'pKi', '< 5.00'),
  ('CN1CCc2ccc(OCCCCN3CCN(c4cccc5sccc45)CC3)cc2C1=O', 'pKi', 6.37);

# input molecule: `CN1CCc2ccc(OCCCN3CCN(c4ccccc4)CC3)cc2C1=O` ; wanted: its pKi
< 5.00

###

Listing: pKi of selected compounds
- experimental system: D(2) dopamine receptor (Rattus norvegicus, UniProt P61169)
- Sequence (P61169 whole entry): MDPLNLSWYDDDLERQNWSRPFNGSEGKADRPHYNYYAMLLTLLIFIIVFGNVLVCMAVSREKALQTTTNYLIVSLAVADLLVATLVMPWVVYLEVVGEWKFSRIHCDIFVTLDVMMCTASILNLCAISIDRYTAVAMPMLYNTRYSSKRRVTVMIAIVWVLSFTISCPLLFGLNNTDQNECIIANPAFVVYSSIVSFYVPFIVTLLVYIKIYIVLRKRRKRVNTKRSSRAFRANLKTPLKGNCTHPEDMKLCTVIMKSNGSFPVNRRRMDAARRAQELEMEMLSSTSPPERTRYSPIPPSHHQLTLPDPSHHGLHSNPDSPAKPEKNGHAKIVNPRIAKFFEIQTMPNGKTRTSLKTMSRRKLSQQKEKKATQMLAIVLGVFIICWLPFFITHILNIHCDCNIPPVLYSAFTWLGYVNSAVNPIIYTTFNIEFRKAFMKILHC
Please keep in mind that pKi is minus log10 of the molar concentration; only the number is needed.

INSERT INTO measurements (chem_smiles, test_readout, reported) VALUES
  ('CN1CCc2ccc(OCCN3CCC(c4noc5cc(F)ccc45)CC3)cc2C1=O', 'pKi', 6.25);

Record lookup: for D(2) dopamine receptor (Rattus norvegicus, UniProt P61169), what pKi belongs to `CN1CCc2ccc(OCCCN3CCC(C(=O)c4ccc(F)cc4F)CC3)cc2C1=O` ?
6.04

Record lookup: for D(2) dopamine receptor (Rattus norvegicus, UniProt P61169), what pKi belongs to `CN1CCc2ccc(OCCCN3CCN(c4ccc(Cl)cc4)CC3)cc2C1=O` ?
6.57

src = ChEMBL document CHEMBL4706549
